# System: MDA-MB-231
# assay details: Antiproliferative activity against human MDA-MB-231 cells after 72 hrs by WST8 assay
# Assay type: functional, cell-based
# experimental conditions: MDA-MB-231, 72 h
measured attribute: pIC50
Hey, just a heads up that pIC50 is the negative log base 10 of the concentration in molar.

Prompt line: For the molecule O=c1[nH]cc(F)c(=O)[nH]1 [FLUOROURACIL] , give its measured pIC50 value.
Response line: 5.28

----------
# Tested on: A549
# assay details: Antiproliferative activity against human A549 cells after 72 hrs by WST8 assay
# Type: functional, cell-based
# experimental conditions: A549, 72 h
measured attribute: IC50 (µM)
// return numeric value only (unit: µM, not printed)

Prompt line: For the compound O=c1[nH]cc(F)c(=O)[nH]1 [FLUOROURACIL] , give its measured IC50 value.
Response line: 2.8
